target: PRMT5 (Homo sapiens); construct: purchased Viva (custom protein); experiment: PRMT5 biochemical IC50 assay with SAM as cofactor; details: PRMT5, SAM as cofactor; read-out: SAM IC50
IC50 listing for selected compounds.

Some compounds with recorded IC50:
                                   compound  measured_metric    meas_value
0  C[C@@H]1CC[C@H](c2cccnc2)N(C(=O)C(=O)Nc2cncc(C(N)=O)c2)C1 (single isomer, unassigned)             IC50      > 500 nM
1  COc1ncc(NC(=O)C(=O)N2C[C@@H](C)CC[C@@H]2c2ccc3sc(C(F)(F)F)nc3c2)cc1C(N)=O (single isomer, unassigned)             IC50  50 to 500 nM
2  C[C@@H]1CC[C@@H](c2ccnn2C)N(C(=O)C(=O)Nc2cncc(C(N)=O)c2)C1 (racemic)             IC50      > 500 nM
3  Cc1cc(NC(=O)C(=O)N2C[C@H](C)CC[C@H]2c2cc(F)cc(Cl)c2)cnc1N (single isomer, unassigned)             IC50  50 to 500 nM
4  Cc1cc(C)n(-c2ccc([C@@H]3CC[C@@H](C)CN3C(=O)C(=O)Nc3cncc(C(N)=O)c3)cc2)n1 (racemic)             IC50  50 to 500 nM

Now consider the entry below.
Req: Consider the compound CC(=O)Nc1ccc([C@@H]2CC[C@@H](C)CN2C(=O)C(=O)Nc2cncc(C(N)=O)c2)cc1 (single isomer, unassigned) and give its recorded IC50.
Resp: 50 to 500 nM

====

molecular target: PRMT5 (Homo sapiens); construct: purchased Viva (custom protein); assay: PRMT5 biochemical IC50 assay with no cofactor; conditions: PRMT5, no cofactor; read-out: No Cofactor/rel IC50
measured-metric: IC50

In [3]: df
Out[3]:
                                   compound  meas_value
0  CCc1cc(NC(=O)C(=O)N2C[C@@H](C)CC[C@@H]2c2ccc3sc(C(C)(C)N(C)C)nc3c2)cnc1N [Compound 1237]     < 50 nM

Req: Consider the compound C[C@@H]1CC[C@@H](c2ccc(F)nc2)N(C(=O)C(=O)Nc2cncc(C(N)=O)c2)C1 (racemic) [Compound 276] and give its recorded IC50.
Resp: 50 to 500 nM

====

biological target: PRMT5 (Homo sapiens, UniProt O14744); construct: purchased Viva (custom protein); test: PRMT5 biochemical IC50 assay with SAM as cofactor; settings: PRMT5, SAM as cofactor; read-out: SAM IC50
Sequence (O14744 whole entry): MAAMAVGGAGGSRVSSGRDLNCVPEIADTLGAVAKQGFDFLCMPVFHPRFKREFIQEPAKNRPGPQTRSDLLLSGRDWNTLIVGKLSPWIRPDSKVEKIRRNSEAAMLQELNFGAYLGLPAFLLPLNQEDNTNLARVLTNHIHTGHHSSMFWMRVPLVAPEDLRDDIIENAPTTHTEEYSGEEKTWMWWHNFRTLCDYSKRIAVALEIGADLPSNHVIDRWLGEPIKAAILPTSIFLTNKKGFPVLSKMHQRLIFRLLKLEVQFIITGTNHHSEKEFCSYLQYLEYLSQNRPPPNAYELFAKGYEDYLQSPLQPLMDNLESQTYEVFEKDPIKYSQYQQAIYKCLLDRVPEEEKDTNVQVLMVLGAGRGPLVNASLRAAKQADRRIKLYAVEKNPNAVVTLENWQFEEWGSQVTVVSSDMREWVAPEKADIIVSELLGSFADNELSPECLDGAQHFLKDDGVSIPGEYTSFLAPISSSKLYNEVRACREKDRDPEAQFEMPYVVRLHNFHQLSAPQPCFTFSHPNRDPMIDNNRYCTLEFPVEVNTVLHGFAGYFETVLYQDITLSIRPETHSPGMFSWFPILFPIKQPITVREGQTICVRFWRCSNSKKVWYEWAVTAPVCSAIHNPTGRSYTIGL
Sequence (Q9BQA1 whole entry partner): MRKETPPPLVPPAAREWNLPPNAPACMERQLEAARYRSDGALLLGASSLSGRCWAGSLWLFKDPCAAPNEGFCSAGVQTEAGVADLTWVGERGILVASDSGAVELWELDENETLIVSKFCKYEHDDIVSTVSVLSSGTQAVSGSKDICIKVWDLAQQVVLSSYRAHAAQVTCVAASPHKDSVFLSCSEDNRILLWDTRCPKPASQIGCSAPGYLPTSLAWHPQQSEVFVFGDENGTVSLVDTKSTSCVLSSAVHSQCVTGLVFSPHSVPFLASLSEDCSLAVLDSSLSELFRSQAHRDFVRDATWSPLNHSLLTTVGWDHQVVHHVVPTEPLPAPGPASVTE
pIC50: −log10 of the molar value.
measured-metric: pIC50

>>> print(df.to_string())
                                   molecule    meas_value
0  C[C@H]1CC[C@H](c2ccc(O)c(F)c2)N(C(=O)C(=O)Nc2cncc(C(N)=O)c2)C1 (single isomer, unassigned) [Compound 354]  6.30 to 7.30

Req: Consider the molecule CNc1ccc([C@H]2CC[C@H](C)CN2C(=O)C(=O)Nc2cncc(C(N)=O)c2)cn1 (single isomer, unassigned) [Compound 444] and give its recorded pIC50.
Resp: < 6.30

Req: Consider the molecule C[C@@H]1CC[C@@H](c2ccc(F)c(O)c2)N(C(=O)C(=O)Nc2cncc(C(N)=O)c2)C1 (racemic) [Compound 540] and give its recorded pIC50.
Resp: 6.30 to 7.30

Req: Consider the molecule CCc1cc(NC(=O)C(=O)N2C[C@@H](C)CC[C@@H]2c2ccc3sc(C4CC5(C4)CN(C)C5)nc3c2)cnc1N [Compound 1283] and give its recorded pIC50.
Resp: > 7.30

Req: Consider the molecule Cc1cc(NC(=O)C(=O)N2C[C@@H](C)CC[C@@H]2c2cscn2)cnc1N (single isomer, unassigned) [Compound 1020] and give its recorded pIC50.
Resp: < 6.30

Req: Consider the molecule COc1ncc(NC(=O)C(=O)N2C[C@H](C)CC[C@H]2c2ccc3c(c2)CCC(=O)N3)cc1C(N)=O (single isomer, unassigned) [Compound 674] and give its recorded pIC50.
Resp: 6.30 to 7.30
